// provenance: patent US11072626B2

Target: His-tagged recombinant human Gal-3 (hGal-3) (Homo sapiens (Human))
Sequence (P17931 whole entry): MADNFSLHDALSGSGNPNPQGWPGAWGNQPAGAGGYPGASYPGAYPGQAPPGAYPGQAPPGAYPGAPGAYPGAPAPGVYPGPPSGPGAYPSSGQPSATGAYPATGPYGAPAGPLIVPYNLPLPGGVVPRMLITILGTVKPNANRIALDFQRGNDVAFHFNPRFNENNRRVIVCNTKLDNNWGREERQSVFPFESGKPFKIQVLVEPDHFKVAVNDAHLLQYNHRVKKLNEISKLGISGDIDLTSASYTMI
Assay: Gal-3 HTRF assay (hGal-3 / B-ASF)
Assay type: binding
Details: 15 nM hGal-3, 15 nM B-ASF, table after Example 20, read-out: hGal3 IC50
value_kind: IC50 (nM)
Express the result in nM but write the number alone.

The value of IC50 measured for the molecule O=C(CO[C@@H]1[C@@H](n2cc(-c3cc(F)c(F)c(F)c3)nn2)[C@@H](O)[C@@H](CO)O[C@@H]1Sc1ccc(Cl)c(Cl)c1)N1CCC[C@H]1CO [Example 29] turned out to be 72

IC50 reported for this molecule CC(=O)NC1CN(C(=O)CO[C@@H]2[C@@H](n3cc(-c4cc(F)c(F)c(F)c4)nn3)[C@@H](O)[C@@H](CO)O[C@@H]2Sc2ccc(Cl)c(Cl)c2)C1 [Example 30] : 800

IC50 for O=C1CN(C(=O)CO[C@@H]2[C@@H](n3cc(-c4cc(F)c(F)c(F)c4)nn3)[C@@H](O)[C@@H](CO)O[C@@H]2Sc2ccc(Cl)c(Cl)c2)CCN1 [Example 26] is 86

// IC50 lookup, molecule = O=C(CO[C@@H]1[C@@H](n2cc(-c3cc(F)c(F)c(F)c3)nn2)[C@@H](O)[C@@H](CO)O[C@@H]1Sc1ccc(Cl)c(Cl)c1)N1CC[C@@H](O)C1 [Example 27] , result: 70

molecule O=C(CO[C@@H]1[C@@H](n2cc(-c3cc(F)c(F)c(F)c3)nn2)[C@@H](O)[C@@H](CO)O[C@@H]1Sc1ccc(Cl)c(Cl)c1)N1CCS(=O)(=O)CC1 [Example 22] , IC50 observed: 43

Recorded IC50 (molecule O=C(CO[C@@H]1[C@@H](n2cc(-c3cc(F)c(F)c(F)c3)nn2)[C@@H](O)[C@@H](CO)O[C@@H]1Sc1ccc(Cl)c(Cl)c1)N1CCCCC1 [Example 21] ): 225

IC50 in this record for O=C(CO[C@@H]1[C@@H](n2cc(-c3cc(F)c(F)c(F)c3)nn2)[C@@H](O)[C@@H](CO)O[C@@H]1Sc1ccc(Cl)c(Cl)c1)N1CCOCC1 [Example 25] : 76

Entry COCCN(C)C(=O)CO[C@@H]1[C@@H](n2cc(-c3cc(F)c(F)c(F)c3)nn2)[C@@H](O)[C@@H](CO)O[C@@H]1Sc1ccc(Cl)c(Cl)c1 [Example 32] — recorded IC50 = 700

According to the records, this molecule O=C(CO[C@@H]1[C@@H](n2cc(-c3cc(F)c(F)c(F)c3)nn2)[C@@H](O)[C@@H](CO)O[C@@H]1Sc1ccc(Cl)c(Cl)c1)N1CC[C@H](O)C1 [Example 28] displays IC50 of 48

Short answer for O=C(CO[C@@H]1[C@@H](n2cc(-c3cc(F)c(F)c(F)c3)nn2)[C@@H](O)[C@@H](CO)O[C@@H]1Sc1ccc(Cl)c(Cl)c1)NC1CC2(CC(O)C2)C1 (some centres unmarked) [Example 34] : IC50 was 660

Value of IC50 reported for the molecule O=C(CO[C@@H]1[C@@H](n2cc(-c3cc(F)c(F)c(F)c3)nn2)[C@@H](O)[C@@H](CO)O[C@@H]1Sc1ccc(Cl)c(Cl)c1)N1CCC[C@H](O)C1 [Example 33] is 60
